Taken from ChEMBL document CHEMBL2151006.

# Measurement Protocol: Intrinsic clearance in human liver microsomes
# Format: ADME, Microsome
# Experimental Conditions: read-out: CLH
Answer each item with its documented microsomal CLint.

GET /value?item= CCCCCn1cc(C(=O)NCc2ccc(Cl)c(Cl)c2)c(=O)c2ccc(Sc3ccccc3)cc21 &field=microsomal CLint returns > 700 µL/min/mg

GET /value?item= CCn1cc(C(=O)N[C@@H]2C(C)(C)C3CC[C@]2(C)C3)c(=O)c2ccc(F)cc21 &field=microsomal CLint returns > 700 µL/min/mg

----------
For Cannabinoid receptor 1 (Homo sapiens), measured log10 of Ki is reported for the entries below.
// stored as log10 of Ki expressed in µM

GET /value?item= CCn1cc(C(=O)N[C@@H]2C(C)(C)C3CC[C@]2(C)C3)c(=O)c2ccc(Sc3ccccc3)cc21 &field=log10 of Ki returns -0.74

GET /value?item= CC1(C)C2CC[C@](C)(C2)[C@@H]1NC(=O)c1cn(CCCCO)c2cc(Sc3ccccc3)ccc2c1=O &field=log10 of Ki returns -1.41

GET /value?item= CCCCCn1cc(C(=O)NCc2ccc(Cl)c(Cl)c2)c(=O)c2ccc(Sc3ccccc3)cc21 &field=log10 of Ki returns -0.38

GET /value?item= CCCCCn1cc(C(=O)N2CCC[C@H]2C(N)=O)c(=O)c2ccc(Sc3ccccc3)cc21 &field=log10 of Ki returns 0.17

GET /value?item= CCCCn1cc(C(=O)N[C@@H]2C(C)(C)C3CC[C@]2(C)C3)c(=O)c2ccc(F)cc21 &field=log10 of Ki returns -1.84

GET /value?item= CCCCCn1cc(C(=O)NN2CCCCC2)c(=O)c2ccc(Sc3ccccc3)cc21 &field=log10 of Ki returns -1.54

----------
Answer each item with its documented microsomal CLint.
# Measurement Protocol: Intrinsic clearance in rat liver microsomes
# Assay type: ADME, Microsome
# Experimental Conditions: read-out: CLH

GET /value?item= CCCCCn1cc(C(=O)NCc2ccc(Cl)c(Cl)c2)c(=O)c2ccc(Sc3ccccc3)cc21 &field=microsomal CLint returns > 700 µL/min/mg

GET /value?item= CCn1cc(C(=O)N[C@@H]2C(C)(C)C3CC[C@]2(C)C3)c(=O)c2ccc(F)cc21 &field=microsomal CLint returns > 700 µL/min/mg

----------
# System Under Test: Cannabinoid receptor 1 (Homo sapiens)
# Sequence (P21554 whole entry): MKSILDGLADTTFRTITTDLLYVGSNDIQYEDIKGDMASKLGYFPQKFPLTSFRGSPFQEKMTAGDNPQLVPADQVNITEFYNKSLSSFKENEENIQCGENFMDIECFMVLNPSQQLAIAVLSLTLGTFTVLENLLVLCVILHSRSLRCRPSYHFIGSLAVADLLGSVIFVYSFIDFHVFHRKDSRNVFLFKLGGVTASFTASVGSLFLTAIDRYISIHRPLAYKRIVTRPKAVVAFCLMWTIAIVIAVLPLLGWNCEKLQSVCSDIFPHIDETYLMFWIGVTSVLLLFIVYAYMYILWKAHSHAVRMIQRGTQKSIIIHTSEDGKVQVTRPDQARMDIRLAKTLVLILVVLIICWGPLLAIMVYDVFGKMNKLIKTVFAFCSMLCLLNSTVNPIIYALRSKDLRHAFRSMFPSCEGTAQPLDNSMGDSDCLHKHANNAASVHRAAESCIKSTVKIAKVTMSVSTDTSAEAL
# Measurement Protocol: Agonist activity at human CB1 receptor transfected in CHO cell membranes by [35S]GTPgammaS binding assay
# Assay type: functional
Experimental Endpoint: pEC50
Lab note — pEC50 values are minus log10 of concentrations in M.

GET /value?item= CCCCCn1cc(C(=O)NCc2ccc(Cl)c(Cl)c2)c(=O)c2ccc(Sc3ccccc3)cc21 &field=pEC50 returns 6.10

----------
Answer each item with its documented pKi.
Lab note — pKi values are minus log10 of concentrations in M.

Tested on Cannabinoid receptor 1 (Homo sapiens, UniProt P21554): CCCn1cc(C(=O)N[C@@H]2C(C)(C)C3CC[C@]2(C)C3)c(=O)c2ccc(Sc3ccccc3)cc21 . Observed pKi: 7.96

Tested on Cannabinoid receptor 1 (Homo sapiens, UniProt P21554): COCCn1cc(C(=O)N[C@@H]2C(C)(C)C3CC[C@]2(C)C3)c(=O)c2ccc(F)cc21 . Observed pKi: 6.53

Tested on Cannabinoid receptor 1 (Homo sapiens, UniProt P21554): CCCCn1cc(C(=O)N[C@@H]2C(C)(C)C3CC[C@]2(C)C3)c(=O)c2ccc(Sc3ccccc3)cc21 . Observed pKi: 8.33

Tested on Cannabinoid receptor 1 (Homo sapiens, UniProt P21554): CCCCCn1cc(C(=O)NCc2ccc(Cl)c(Cl)c2)c(=O)c2ccc(Br)cc21 . Observed pKi: 6.18

Tested on Cannabinoid receptor 1 (Homo sapiens, UniProt P21554): Cc1cccc(Cn2cc(C(=O)N[C@@H]3C(C)(C)C4CC[C@]3(C)C4)c(=O)c3ccc(Sc4ccccc4)cc32)c1 . Observed pKi: 6.17

Tested on Cannabinoid receptor 1 (Homo sapiens, UniProt P21554): CCCCCn1cc(C(=O)N[C@@H]2C(C)(C)C3CC[C@]2(C)C3)c(=O)c2ccc(F)cc21 . Observed pKi: 8.40

Tested on Cannabinoid receptor 1 (Homo sapiens, UniProt P21554): CCCn1cc(C(=O)N[C@@H]2C(C)(C)C3CC[C@]2(C)C3)c(=O)c2ccc(F)cc21 . Observed pKi: 6.71

Tested on Cannabinoid receptor 1 (Homo sapiens, UniProt P21554): Cn1cc(C(=O)N[C@@H]2C(C)(C)C3CC[C@]2(C)C3)c(=O)c2ccc(Sc3ccccc3)cc21 . Observed pKi: 5.73

Tested on Cannabinoid receptor 1 (Homo sapiens, UniProt P21554): CCCCCn1cc(C(=O)NN(C)C)c(=O)c2ccc(Sc3ccccc3)cc21 . Observed pKi: 7.06

Tested on Cannabinoid receptor 1 (Homo sapiens, UniProt P21554): CCCCCn1cc(C(=O)NC2CN3CCC2CC3)c(=O)c2ccc(Sc3ccccc3)cc21 (stereo unspecified) . Observed pKi: 6.82

Tested on Cannabinoid receptor 1 (Homo sapiens, UniProt P21554): CCCCCn1cc(C(=O)NCc2ccc(Cl)c(Cl)c2)c(=O)c2ccc(-c3ccccc3)cc21 . Observed pKi: 6.41

Tested on Cannabinoid receptor 1 (Homo sapiens, UniProt P21554): CCCCCn1cc(C(=O)NCCN2CCOCC2)c(=O)c2ccc(Sc3ccccc3)cc21 . Observed pKi: 7.20

----------
# Species on record: Homo sapiens
# Measurement Protocol: Selectivity index, ratio of Ki for human recombinant CB1 receptor to Ki for human recombinant CB2 receptor
Answer each item with its documented Ratio Ki.

GET /value?item= CCCCCn1cc(C(=O)NCc2ccc(Cl)c(Cl)c2)c(=O)c2ccc(Sc3ccccc3)cc21 &field=Ratio Ki returns < 0.04

GET /value?item= Cc1cccc(Cn2cc(C(=O)N[C@@H]3C(C)(C)C4CC[C@]3(C)C4)c(=O)c3ccc(F)cc32)c1 &field=Ratio Ki returns > 317

GET /value?item= CCCCCn1cc(C(=O)NCc2ccc(Cl)c(Cl)c2)c(=O)c2ccc(-c3ccccc3)cc21 &field=Ratio Ki returns < 0.04

GET /value?item= Cn1cc(C(=O)N[C@@H]2C(C)(C)C3CC[C@]2(C)C3)c(=O)c2ccc(F)cc21 &field=Ratio Ki returns > 106
